Tested on: Plasmodium falciparum
Experiment: MMV: Modified 3H-Hyoxanthine uptake assay; RPMI 1640 (Invitrogen cat#23400-013) without Sodium Bicarbonate (NaHCO3).
Format: functional, organism-based
Conditions: 3D7
MEASURE NAME: log10(IC50) (log10 of the value in nM)

{"COMPOUND": "CCc1c(C)c(=N)c2ccccc2n1C", "ENDPOINT RESULT": 2.89}
{"COMPOUND": "CCC(c1ccccc1)c1nn2c(-c3cccs3)nnc2s1 (centres undefined)", "ENDPOINT RESULT": 2.26}
{"COMPOUND": "CCC1(C)CC(CCNCc2ccccc2O)(c2ccc(C)cc2)CCO1 (centres undefined)", "ENDPOINT RESULT": 2.44}
{"COMPOUND": "COc1ccc(Br)cc1C1Nc2ccc3ccccc3c2C2=C1C(=O)CC(c1ccccc1)C2 (centres undefined)", "ENDPOINT RESULT": 2.85}
{"COMPOUND": "CCc1ccc(Nc2cc(C)c3ccc(O)cc3n2)cc1", "ENDPOINT RESULT": 2.10}
{"COMPOUND": "COc1ccc2c(=O)cc(C(Cl)(Cl)Cl)oc2c1", "ENDPOINT RESULT": 2.90}
{"COMPOUND": "Cc1cc(Nc2ccc(Cl)cc2)n2nc(C(F)(F)F)nc2n1", "ENDPOINT RESULT": 2.23}
{"COMPOUND": "COc1ccc(C=C2SC(=N)N(c3ccccc3OC)C2=O)cc1", "ENDPOINT RESULT": 2.22}
{"COMPOUND": "Cc1ccc(Nc2nc(NCCO)c3ccccc3n2)cc1C", "ENDPOINT RESULT": 2.51}
{"COMPOUND": "CCCCCC(=O)N1c2ccccc2N=C2CC(c3ccc(OC)c(OC)c3)CC(O)=C2C1c1ccc(C(F)(F)F)cc1 (centres undefined)", "ENDPOINT RESULT": 2.16}
{"COMPOUND": "COc1ccc(NC(=O)C2c3ccccc3C(=O)N(CC(C)C)C2c2cccs2)cc1 (centres undefined)", "ENDPOINT RESULT": 2.57}
{"COMPOUND": "Cc1cc(C)c2c(c1)OCN(Cc1ccccc1Cl)C2", "ENDPOINT RESULT": 2.56}
{"COMPOUND": "C=CC12CCN(CC1)C(C(O)c1ccnc3ccc(OC)cc13)C2 (centres undefined)", "ENDPOINT RESULT": 1.60}
{"COMPOUND": "COc1cccc(NC(=O)[C@H](C(C)C)n2c(=O)[nH]c3ccccc3c2=O)c1", "ENDPOINT RESULT": 2.54}
{"COMPOUND": "Cc1cc(NC(=O)C2c3ccccc3C(=O)N(CC(C)C)C2c2cccs2)no1 (centres undefined)", "ENDPOINT RESULT": 2.59}
